# System: LOX IMVI melanoma
# ASSAY_EXPLANATION: NCI-60 one-dose screen, 48 h (100 = growth as untreated, 0 = no growth, -100 = all killed)
# ASSAY_CONDITIONS: 10 µM unless noted
The panel holds about 83,000 compounds, 20% with a hit somewhere; the sample as a whole holds those more often.
ENDPOINT_LABEL: growth (%)
// units = %; emit number, no label

Please review the following examples before continuing.
COc1ccc(Cl)cc1NC(N)=S    96.7
c1ccc([P+](CCC[P+](c2ccccc2)(c2ccccc2)c2ccccc2)(c2ccccc2)c2ccccc2)cc1    86.6
C=CCn1c(C)nc2ccc(Nc3nc(Nc4ccc(F)cc4)nc4ccccc34)cc21    45.3
COc1cccc2cc(-c3cc4ccccc4[nH]3)c(=NC(=O)c3ccc(Cl)cc3)oc12    75.5
COC(=O)c1ccc(C)cc1    99.5
CCCCC(N)(C(=O)O)C1CCCC1 (stereo unspecified)    99.4

Next compound, growth to be filled in.
Task: May I ask what growth has been recorded for CN(C)C1CCC(NC2=CC(=O)C=CC2=O)CC1 (stereo unspecified) ?
Result: 97.9

###

Listing of recorded growth by entry.
# System: HCT-116 colon
# ASSAY_EXPLANATION: NCI-60 one-dose screen, 48 h (100 = growth as untreated, 0 = no growth, -100 = all killed)
# ASSAY_CONDITIONS: 10 µM unless noted
The panel holds about 83,000 compounds, 20% with a hit somewhere; the sample as a whole holds those more often. Activity calls are given as the source filed them. How the source made its calls: active means growth percent below 10; inactive means the rest.

COc1ccc(C(=O)c2cc(OC)c(OC)c(OC)c2)cc1/C=C/C(=O)c1ccc(OC)c(OC)c1    10.4% (inactive)
CCCCCC(=O)OCc1ccccc1    93.8% (inactive)
CCN(Cc1ccc(CN(CC)C(=O)C(Br)Br)cc1)C(=O)C(Br)Br    -21% (active)
Cc1ccc2nc(SCn3nnc4ccccc4c3=O)[nH]c2c1    97.1% (inactive)
O=C1CCC(=O)N1Cc1ccccc1    98.6% (inactive)
CCN1C(=S)N(CC)C2Nn3c(s/c(=C4\C(=O)N(C)c5ccccc54)c3=O)=NC21 (centres undefined)    7.36% (active)
Clc1ccc([I+]c2ccc(Cl)cc2Cl)c(Cl)c1    -37.7% (active)
CC[C@]1(O)C[C@@H]2CN(Cc3c([nH]c4ccccc34)[C@@](C(=O)OC)(c3cc4c(cc3OC)N(C)[C@H]3[C@@](O)(C(=O)OC)[C@H](OC(C)=O)[C@]5(CC)[C@@H]6C[C@@H]6CN6CC[C@]43[C@@H]65)C2)C1    2.43% (active)

Task: Reported growth for CCc1cccc(C)c1NC(=O)c1sc2nc3c(cc2c1N)C(=O)CCC3 : what is it?
Result: 31.6% (inactive)

###

# System: OVCAR-8 ovarian
# ASSAY_EXPLANATION: NCI-60 one-dose screen, 48 h
# ASSAY_CONDITIONS: 10 µM unless noted
The panel holds about 83,000 compounds, 20% with a hit somewhere; the sample as a whole holds those more often. Calls of active or inactive are those of the source. How the source made its calls: active means growth percent below 10; inactive means the rest.
Assign a class; possible classes are 1 (yes) (active), 0 (no) (inactive)

CCN1C(=S)N(CC)C2Nn3c(s/c(=C4\C(=O)N(C)c5ccccc54)c3=O)=NC21 (centres undefined)    0 (no)
COc1ccc(-c2nnc(COc3ccc(NS(=O)(=O)c4ccc(OC)cc4)cc3F)o2)cc1    0 (no)
Cn1cc(C=O)c2ccccc21    0 (no)
Nc1c(C(=O)Nc2c(Cl)cccc2Cl)sc2nc3c(cc12)CCCCC3    0 (no)
N#Cc1ncc(-c2ccc(F)c(F)c2F)c(NC2CCCCCC2)n1    0 (no)

Task: Please let me know the test result on file for O=c1c2cccc3c(Nc4ccc(F)cc4)ccc(c32)c2nc3ccccc3n12 .
Result: 0 (no)

Task: // query: COc1cc(Cn2c(SCC(=O)Nc3cc(OC)c(OC)c(OC)c3)nc3ccccc3c2=O)cc(OC)c1OC
Result: 0 (no)

Task: And the next one, O=C(NCCCN1CCN(CCCNC(=O)C2CCCCC2)CC1)C1CCCCC1 ?
Result: 0 (no)

Task: Try Oc1ccc(N=Cc2ccccc2)cc1 next.
Result: 0 (no)

Task: Now the same for CCCCCCCCCCn1cc[n+](C)c1
Result: 0 (no)

Task: Quick one: CC1=CNNc2c3ncnc-3ncn21
Result: 0 (no)

###

# System: A498 renal
# ASSAY_EXPLANATION: NCI-60 one-dose screen, 48 h (100 = growth as untreated, 0 = no growth, -100 = all killed)
# ASSAY_CONDITIONS: 10 µM unless noted
The panel holds about 83,000 compounds, 20% with a hit somewhere; the sample as a whole holds those more often.
We label by threshold. Values of growth strictly beneath 80% are t. Values of 80% and up are f.

CCNC(=O)CCCCC(=O)c1c(C)[nH]c(/C=C2\N=C(c3ccc[nH]3)C=C2OC)c1C    f

Task: Here's an entry: CNC(=O)c1cc(Oc2ccc3c(c2)sc2nc(-c4ccc(Cl)cc4)cn23)ccn1 . Is its growth below 80%?
Result: f

Task: Repeat for the following compound: CCN(CC)CCCC(C)N=c1cc(Nc2cc(=NC(C)CCCN(CC)CC)c3cc(OC)ccc3o2)oc2ccc(OC)cc12 (centres undefined)
Result: t

Task: Param item: C=C1C(=O)O[C@H]2[C@H]1CC/C(COC(=O)NCCc1cccc(OC)c1)=C\CC[C@@]1(C)O[C@@H]21
Result: f

Task: Next compound: CC[C@]1(O)C[C@@H]2CN(Cc3c([nH]c4ccccc34)[C@@](C(=O)OC)(c3cc4c(cc3OC)N(C)[C@H]3[C@@](O)(C(=O)OC)[C@H](OC(C)=O)[C@]5(CC)[C@@H]6C[C@@H]6CN6CC[C@]43[C@@H]65)C2)C1
Result: t

Task: Input Cc1cc(C)c(NC(=O)c2sc3nc4c(cc3c2N)CN(Cc2ccccc2)CC4)c(C)c1
Result: t

Task: Now try CCO/C=N/NC(=O)c1ccncc1 .
Result: f

Task: Try this compound next: CCNCc1ccncc1
Result: f

###

Reported values of growth for individual entries
# Tested on: HT29 colon
# ASSAY_EXPLANATION: NCI-60 one-dose screen, 48 h (100 = growth as untreated, 0 = no growth, -100 = all killed)
# ASSAY_CONDITIONS: 10 µM unless noted
Compounds without any hit were thinned out: in the full panel of roughly 83,000, 20% have a hit. Calls of active or inactive are those of the source. The calls were made as follows: active = growth percent below 10; inactive = the rest.

Task: Reported growth for Nc1nc(Cl)c2c(ncn2Cc2ccc(CCl)cc2)n1 : what is it?
Result: 91% (inactive)

Task: Ok, now CCCCCCCCCCn1cc[n+](C)c1
Result: 12.3% (inactive)

Task: Again, but for c1cc(-c2ccc3c(c2)OCO3)n2nccc2n1
Result: 103% (inactive)

###

# Tested on: IGROV1 ovarian
# ASSAY_EXPLANATION: NCI-60 one-dose screen, 48 h (100 = growth as untreated, 0 = no growth, -100 = all killed)
# ASSAY_CONDITIONS: 10 µM unless noted
About 83,000 compounds went through this panel and 20% of them were active in at least one assay; those are over-represented in the sample as a whole.
Criterion: growth strictly under 40%. Met: Condition met. Not met: Condition not met.

Cc1ccc2c(c1)C(C)Cc1c(ncnc1-n1cnc3ccccc31)N2C (stereo not given)    Condition met
Cc1cc(C)c(S(=O)(=O)N2CCN(c3cc4c(cc3F)c(=O)c(C(=O)O)cn4C3CC3)CC2)c(C)c1    Condition met

Task: Take the molecule COC(=O)CCCCCCN=Cc1c(O)c(O)c(C(C)C)c2cc(C)c(-c3c(C)cc4c(C(C)C)c(O)c(O)c(C=NCCCCCCC(=O)OC)c4c3O)c(O)c12 and say whether its growth is less than 40%.
Result: Condition met

Task: Do the same for O=C(O)C(=Cc1c2ccccc2cc2ccccc12)C(=O)O please
Result: Condition not met

Task: // query: CCCCCCc1nc2c(c(C)nn2-c2ccccc2)c2c1CCCCC2
Result: Condition not met

###

# Tested on: SF-295 CNS
# ASSAY_EXPLANATION: NCI-60 one-dose screen, 48 h
# ASSAY_CONDITIONS: 10 µM unless noted
This is part of a sample that, as a whole, favours compounds with a hit. Of some 83,000 tested, about 20% had one in any assay. Calls of active or inactive are those of the source. How the source made its calls: active means growth percent below 10; inactive means the rest.
I would appreciate it if you answered using one of these outcomes: active, inactive

CCC(=O)Oc1cc(/C=C/C(=O)O[C@H]2C[C@H]3CN4CCc5c([nH]c6cc(OC)ccc56)[C@@H]4C[C@@H]3[C@@H](C(=O)OC)[C@@H]2OC)ccc1OC    inactive

Task: Recorded test call requested for COc1cc(-n2nc(C(=O)Nc3ccc(C(=O)O)cc3)nc2-c2ccccc2)cc(OC)c1OC
Result: inactive

Task: Further, for Cc1ccc2c(c1)C(C)Cc1c(ncnc1-n1cnc3ccccc31)N2C (centres undefined) ?
Result: active

Task: Next record, please: CCN1C(=O)/C(=c2\sc3n(c2=O)C2C(NN=3)N(CC)C(=S)N2CC)c2ccccc21 (centres undefined)
Result: inactive
